From: ChEMBL document CHEMBL4382237

- System: HepG2
- protocol text: Cytotoxicity against human HepG2 cells after 24 hrs by resazurin dye-based fluorescence assay
- Type: cell-based
- setup conditions: hepg2, 24 h
Collected CC50 values appear next to each entry.
value kind: CC50

{"smiles notation": "Cc1ccc(CCn2ccn3cc([N+](=O)[O-])nc3c2=O)cc1", "value kind": "CC50", "experimental result": "> 100 µM"}
{"smiles notation": "O=c1c2nc([N+](=O)[O-])cn2ccn1Cc1cccc(C(F)(F)F)c1", "value kind": "CC50", "experimental result": "> 100 µM"}
{"smiles notation": "O=c1c2nc([N+](=O)[O-])cn2ccn1Cc1ccc(F)cc1", "value kind": "CC50", "experimental result": "> 100 µM"}
{"smiles notation": "O=c1c2nc([N+](=O)[O-])cn2ccn1CCc1ccc(OC(F)(F)F)cc1", "value kind": "CC50", "experimental result": "> 100 µM"}
{"smiles notation": "Cc1c(C)n2cc([N+](=O)[O-])nc2c(=O)n1Cc1cccc(OC(F)(F)F)c1", "value kind": "CC50", "experimental result": "26 to 80 µM"}
{"smiles notation": "O=[N+]([O-])c1cn2ccnc(OCc3ccccc3OC(F)(F)F)c2n1", "value kind": "CC50", "experimental result": "> 100 µM"}

----------
- Tested on: Trypanosoma brucei brucei
- protocol text: Antiparasitic activity against bloodstream form of Trypanosoma brucei brucei strain 427 after 48 hrs by resazurin dye-based assay
- Assay type: functional, organism-based
- setup conditions: strain 427, 48 h, read-out: IC50
pIC50: −log10 of the molar value.
value kind: pIC50

{"smiles notation": "NC(=O)Cn1ccn2cc([N+](=O)[O-])nc2c1=O", "target desc": "Trypanosoma brucei brucei", "value kind": "pIC50", "comparison sign": "<", "experimental result": 4.40}
{"smiles notation": "Cc1nc(OCc2ccc(OC(F)(F)F)cc2)c2nc([N+](=O)[O-])cn2c1C", "target desc": "Trypanosoma brucei brucei", "value kind": "pIC50", "comparison sign": "=", "experimental result": 5.00}
{"smiles notation": "O=c1c2nc([N+](=O)[O-])cn2ccn1Cc1ccc(F)cc1F", "target desc": "Trypanosoma brucei brucei", "value kind": "pIC50", "comparison sign": "<", "experimental result": 4.40}
{"smiles notation": "O=c1c2nc([N+](=O)[O-])cn2ccn1Cc1cccc(C(F)(F)F)c1", "target desc": "Trypanosoma brucei brucei", "value kind": "pIC50", "comparison sign": "=", "experimental result": 5.28}
{"smiles notation": "O=c1[nH]c(-c2ccccc2)cn2cc([N+](=O)[O-])nc12", "target desc": "Trypanosoma brucei brucei", "value kind": "pIC50", "comparison sign": "=", "experimental result": 6.66}
{"smiles notation": "Cc1ccc(CCn2ccn3cc([N+](=O)[O-])nc3c2=O)cc1", "target desc": "Trypanosoma brucei brucei", "value kind": "pIC50", "comparison sign": "<", "experimental result": 4.40}
{"smiles notation": "Cc1cn2cc([N+](=O)[O-])nc2c(OCc2ccccc2OC(F)(F)F)n1", "target desc": "Trypanosoma brucei brucei", "value kind": "pIC50", "comparison sign": "=", "experimental result": 5.92}
{"smiles notation": "Cc1cn2cc([N+](=O)[O-])nc2c(=O)n1CCO", "target desc": "Trypanosoma brucei brucei", "value kind": "pIC50", "comparison sign": "=", "experimental result": 5.34}
{"smiles notation": "Cc1cccc(Cn2ccn3cc([N+](=O)[O-])nc3c2=O)c1", "target desc": "Trypanosoma brucei brucei", "value kind": "pIC50", "comparison sign": "=", "experimental result": 5.27}
{"smiles notation": "Cc1cn2cc([N+](=O)[O-])nc2c(=O)n1Cc1ccccc1OC(F)(F)F", "target desc": "Trypanosoma brucei brucei", "value kind": "pIC50", "comparison sign": "=", "experimental result": 5.68}
{"smiles notation": "Cc1c(C)n2cc([N+](=O)[O-])nc2c(=O)n1Cc1ccccc1OC(F)(F)F", "target desc": "Trypanosoma brucei brucei", "value kind": "pIC50", "comparison sign": "=", "experimental result": 6.11}
{"smiles notation": "Cc1ccc(Cn2c(C)c(C)n3cc([N+](=O)[O-])nc3c2=O)cc1", "target desc": "Trypanosoma brucei brucei", "value kind": "pIC50", "comparison sign": "=", "experimental result": 6.60}
{"smiles notation": "O=[N+]([O-])c1cn2ccnc(OCc3ccccc3OC(F)(F)F)c2n1", "target desc": "Trypanosoma brucei brucei", "value kind": "pIC50", "comparison sign": "<", "experimental result": 4.40}
{"smiles notation": "Cc1cn2cc([N+](=O)[O-])nc2c(=O)n1Cc1ccc(OC(F)(F)F)cc1", "target desc": "Trypanosoma brucei brucei", "value kind": "pIC50", "comparison sign": "=", "experimental result": 6.39}
{"smiles notation": "Cc1nc(OCc2ccccc2OC(F)(F)F)c2nc([N+](=O)[O-])cn2c1C", "target desc": "Trypanosoma brucei brucei", "value kind": "pIC50", "comparison sign": "=", "experimental result": 5.72}
{"smiles notation": "CC(=O)OCCn1c(-c2ccccc2)cn2cc([N+](=O)[O-])nc2c1=O", "target desc": "Trypanosoma brucei brucei", "value kind": "pIC50", "comparison sign": "=", "experimental result": 6.07}
{"smiles notation": "CC(=O)OCCn1c(C)cn2cc([N+](=O)[O-])nc2c1=O", "target desc": "Trypanosoma brucei brucei", "value kind": "pIC50", "comparison sign": "=", "experimental result": 6.19}
{"smiles notation": "Cc1cn2cc([N+](=O)[O-])nc2c(OCc2ccc(OC(F)(F)F)cc2)n1", "target desc": "Trypanosoma brucei brucei", "value kind": "pIC50", "comparison sign": "<", "experimental result": 4.40}
{"smiles notation": "Cc1ccc(Cn2c(C)cn3cc([N+](=O)[O-])nc3c2=O)cc1", "target desc": "Trypanosoma brucei brucei", "value kind": "pIC50", "comparison sign": "=", "experimental result": 6.25}
{"smiles notation": "Cc1cn2cc([N+](=O)[O-])nc2c(=O)n1Cc1cccc(OC(F)(F)F)c1", "target desc": "Trypanosoma brucei brucei", "value kind": "pIC50", "comparison sign": "=", "experimental result": 5.96}
{"smiles notation": "Cc1cn2cc([N+](=O)[O-])nc2c(=O)[nH]1", "target desc": "Trypanosoma brucei brucei", "value kind": "pIC50", "comparison sign": "=", "experimental result": 5.44}
{"smiles notation": "O=c1c2nc([N+](=O)[O-])cn2ccn1Cc1ccccn1", "target desc": "Trypanosoma brucei brucei", "value kind": "pIC50", "comparison sign": "=", "experimental result": 5.01}

----------
- Tested on: Pseudomonas aeruginosa
- protocol text: Antibacterial activity against Pseudomonas aeruginosa ATCC 27853 by broth microdilution assay
- Format: functional

{"compound": "O=c1c2nc([N+](=O)[O-])cn2ccn1Cc1ccccn1", "MIC": "> 32 µg/mL"}
{"compound": "O=c1c2nc([N+](=O)[O-])cn2ccn1CCO", "MIC": "> 32 µg/mL"}
{"compound": "O=c1c2nc([N+](=O)[O-])cn2ccn1Cc1cccc(C(F)(F)F)c1", "MIC": "> 32 µg/mL"}
{"compound": "O=c1c2nc([N+](=O)[O-])cn2ccn1Cc1ccc(F)cc1", "MIC": "> 32 µg/mL"}
{"compound": "O=C(Cn1ccn2cc([N+](=O)[O-])nc2c1=O)N1CCOCC1", "MIC": "> 32 µg/mL"}
{"compound": "O=c1c2nc([N+](=O)[O-])cn2ccn1Cc1ccccc1OC(F)(F)F", "MIC": "> 32 µg/mL"}
{"compound": "O=[N+]([O-])c1cn2ccnc(OCCc3ccc(OC(F)(F)F)cc3)c2n1", "MIC": "> 32 µg/mL"}
{"compound": "Cc1cccc(Cn2ccn3cc([N+](=O)[O-])nc3c2=O)c1", "MIC": "> 32 µg/mL"}
{"compound": "CC(c1ccc(F)cc1)n1ccn2cc([N+](=O)[O-])nc2c1=O (centres undefined)", "MIC": "> 32 µg/mL"}
{"compound": "O=c1c2nc([N+](=O)[O-])cn2ccn1CCc1ccc(OC(F)(F)F)cc1", "MIC": "> 32 µg/mL"}
{"compound": "O=c1c2nc([N+](=O)[O-])cn2ccn1C1CCCCC1", "MIC": "> 32 µg/mL"}
{"compound": "O=c1[nH]ccn2cc([N+](=O)[O-])nc12", "MIC": "> 32 µg/mL"}
{"compound": "Cc1ccc(Cn2ccn3cc([N+](=O)[O-])nc3c2=O)cc1", "MIC": "> 32 µg/mL"}
{"compound": "O=c1c2nc([N+](=O)[O-])cn2ccn1CCN1CCOCC1", "MIC": "> 32 µg/mL"}
{"compound": "CC(=O)OCCn1ccn2cc([N+](=O)[O-])nc2c1=O", "MIC": "> 32 µg/mL"}
{"compound": "Cc1ccc(CCn2ccn3cc([N+](=O)[O-])nc3c2=O)cc1", "MIC": "> 32 µg/mL"}
{"compound": "O=c1c2nc([N+](=O)[O-])cn2ccn1Cc1ccc(F)cc1F", "MIC": "> 32 µg/mL"}
{"compound": "NC(=O)Cn1ccn2cc([N+](=O)[O-])nc2c1=O", "MIC": "> 32 µg/mL"}
{"compound": "O=[N+]([O-])c1cn2ccnc(OCc3ccccc3OC(F)(F)F)c2n1", "MIC": "> 32 µg/mL"}
